Tested on: cytochrome P450
ASSAY_NAME: Inactivation of cytochrome P450 in rat liver microsomes assessed as inhibition of aminopyrine demethylation at 1 mM measured without preincubation by Nash reagent based colorimetry in presence of GSH (reference value: 0%)
Format: ADME
CONDITION: probe aminopyrine
MEASURE_NAME: inhibition at 1000 µM (%)
Number only, in %; omit the unit.

[Q] Tell me the measured inhibition at 1000 µM of c1ccc(CNC2CC2)cc1 , please.
[A] 17

###

System: cytochrome P450
ASSAY_NAME: Inactivation of cytochrome P450 in rat liver microsomes assessed as inhibition of aminopyrine demethylation at 1 mM preincubated for 12 mins measured 5 mins after substrate addition by Nash reagent based colorimetry in presence of GSH (reference value: 0%)
Type: ADME
CONDITION: probe aminopyrine
MEASURE_NAME: inhibition at 5 min, 1000 µM (%)
Number only, in %; omit the unit.

[Q] Tell me the measured inhibition at 5 min, 1000 µM of c1ccc(CNC2CC2)cc1 , please.
[A] 62

###

System: cytochrome P450
ASSAY_NAME: Inactivation of cytochrome P450 in rat liver microsomes assessed as inhibition of aminopyrine demethylation at 1 mM preincubated for 12 mins measured 5 mins after substrate addition by Nash reagent based colorimetry in presence of CO/O2 (80:20) (reference value: 0%)
Assay type: ADME
CONDITION: probe aminopyrine
MEASURE_NAME: inhibition at 5 min, 1000 µM (%)
Number only, in %; omit the unit.

[Q] Tell me the measured inhibition at 5 min, 1000 µM of c1ccc(CNC2CC2)cc1 , please.
[A] 24

###

Tested on: cytochrome P450
ASSAY_NAME: Inactivation of cytochrome P450 in rat liver microsomes assessed as inhibition of aminopyrine demethylation at 1 mM preincubated for 12 mins measured 5 mins after substrate addition by Nash reagent based colorimetry (reference value: 0%)
Assay type: ADME
CONDITION: probe aminopyrine
// not met strictly below 50% in inhibition at 5 min, 1000 µM; met otherwise

Illustrative cases are given below, each with its answer.
CC(C)NCc1ccc(Br)cc1	not met
CC(C)NCc1ccc(Cl)cc1	not met
c1ccc(CN2CCOCC2)cc1	not met

[Q] Reported inhibition at 5 min, 1000 µM at or above 50%? COc1ccc(CNC2CC2)cc1
[A] met

[Q] Same lookup for Cc1ccc(CNC2CC2)cc1 , please.
[A] met

[Q] Same lookup for COc1ccc(CNC(C)C)cc1 , please.
[A] not met

[Q] Same lookup for Brc1ccc(CNC2CC2)cc1 , please.
[A] met

[Q] Same lookup for CC(C)NCc1ccccc1 , please.
[A] not met

[Q] Same lookup for Clc1ccc(CNC2CC2)cc1 , please.
[A] met

[Q] Same lookup for c1ccc(CNC2CC2)cc1 , please.
[A] met

[Q] Same lookup for Cc1ccc(CNC(C)C)cc1 , please.
[A] not met

###

System: cytochrome P450
ASSAY_NAME: Inactivation of cytochrome P450 in rat liver microsomes assessed as inhibition of aminopyrine demethylation at 1 mM measured without preincubation by Nash reagent based colorimetry in presence of flavoprotein amine oxidase alternate substrate-inhibitor methimazole (reference value: 0%)
Type: ADME
CONDITION: probe aminopyrine
MEASURE_NAME: inhibition at 1000 µM (%)
Number only, in %; omit the unit.

[Q] Tell me the measured inhibition at 1000 µM of c1ccc(CNC2CC2)cc1 , please.
[A] 25
